// data source = PubChem BioAssay (NCI)

- Tested on: DU-145 prostate
- TEST NAME: NCI tumour cell line growth inhibition, 48 h
ASSAY ENDPOINT: TGI (µM)
The reply should be a number in µM, with the unit left off.

| COMPOUND | SYSTEM UNDER TEST | ASSAY ENDPOINT | OUTPUT UNIT | TEST RESULT |
| --- | --- | --- | --- | --- |
| COc1cccc2c1C(=O)c1c(O)c3c(c(O)c1C2=O)C[C@@](O)(C(=O)CO)C[C@@H]3OC1CC(OC(C)=O)C(OC(C)=O)C(C)O1 (some centres undefined) | DU-145 prostate | TGI | µM | 0.719 |

Consider now this further compound.
*Q* For the compound C=C(C)[C@@H]1CC[C@]2(C(=O)Nc3ccccn3)CC[C@]3(C)[C@H](CC[C@@H]4[C@@]5(C)CCCNC(C)(C)[C@@H]5CC[C@]43C)[C@@H]12 , give its reported TGI.
*A* 3.42
